# assay system: human ether-à-go-go-related gene (hERG) potassium channel (human, UniProt Q12809)
# Sequence (Q12809 whole entry, looked up): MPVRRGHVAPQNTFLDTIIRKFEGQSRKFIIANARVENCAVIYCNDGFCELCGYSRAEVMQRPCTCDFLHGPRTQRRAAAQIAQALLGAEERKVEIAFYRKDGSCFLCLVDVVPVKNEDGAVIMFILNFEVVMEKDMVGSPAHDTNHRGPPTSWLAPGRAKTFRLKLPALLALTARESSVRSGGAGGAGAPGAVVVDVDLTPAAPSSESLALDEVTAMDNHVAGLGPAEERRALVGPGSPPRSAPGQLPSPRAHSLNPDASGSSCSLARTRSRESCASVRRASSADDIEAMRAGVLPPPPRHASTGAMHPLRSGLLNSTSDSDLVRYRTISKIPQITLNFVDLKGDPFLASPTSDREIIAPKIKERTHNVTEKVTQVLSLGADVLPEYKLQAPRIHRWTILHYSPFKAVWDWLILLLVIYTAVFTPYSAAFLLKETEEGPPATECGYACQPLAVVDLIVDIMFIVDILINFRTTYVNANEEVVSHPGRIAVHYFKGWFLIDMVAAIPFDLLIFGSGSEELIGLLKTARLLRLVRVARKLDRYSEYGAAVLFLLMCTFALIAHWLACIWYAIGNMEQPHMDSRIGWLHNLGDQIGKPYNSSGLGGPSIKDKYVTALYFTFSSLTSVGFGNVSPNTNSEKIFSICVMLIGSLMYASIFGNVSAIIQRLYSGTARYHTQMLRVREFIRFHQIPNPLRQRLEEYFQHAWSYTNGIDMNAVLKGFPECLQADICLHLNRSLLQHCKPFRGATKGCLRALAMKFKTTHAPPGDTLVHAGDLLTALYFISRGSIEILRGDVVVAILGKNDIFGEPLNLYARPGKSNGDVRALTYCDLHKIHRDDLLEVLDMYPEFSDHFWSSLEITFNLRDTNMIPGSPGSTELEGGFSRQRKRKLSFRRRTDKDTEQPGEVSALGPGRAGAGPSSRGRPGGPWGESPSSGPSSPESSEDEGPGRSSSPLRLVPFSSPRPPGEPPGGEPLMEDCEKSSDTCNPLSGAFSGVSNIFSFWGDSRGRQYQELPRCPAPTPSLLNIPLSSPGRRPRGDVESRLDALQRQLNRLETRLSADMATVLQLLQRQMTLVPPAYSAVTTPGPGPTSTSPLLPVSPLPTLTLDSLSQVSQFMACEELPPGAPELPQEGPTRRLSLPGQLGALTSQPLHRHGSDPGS
# method description: primary screen, population patch clamp on CHO cells stably expressing hERG; higher = less effect of the substance
The whole screen tested about 310,000 compounds, of which about 2,200 (0.71%) showed an effect of 50% or more. The effect is printed as a negative number. What follows is part of a selection rich in strong results, with near analogues and random picks from the rest.
measured attribute: hERG current change (%, negative = inhibition) at 1uM (%)
The response must be a number in % with no trailing unit.

Hello, I am looking for reported hERG current change (%, negative = inhibition) at 1uM with human ether-à-go-go-related gene (hERG) potassium channel (human, UniProt Q12809) for CCN1CCC(N2CCN(c3ccc(F)cc3)CC2)CC1 . Could you help? 10.6

Follow-up entry: O=C(NC1CCCCCC1)c1cc2c(=O)n3ccccc3nc2s1 8.59

Follow-up entry: Cn1c(C(=O)NC2CCCCC2)cc2c(=O)n3ccccc3nc21 13.4

Follow-up entry: CCOc1cc(N2CCOCC2)c(OCC)cc1NC(=O)c1ccc(C)s1 -1.15

Follow-up entry: CC1CCC(N2CCN(c3ccc([N+](=O)[O-])cc3)CC2)CC1 (centres unmarked) -67.8

Follow-up entry: COc1cc(/C=N/NC(=O)c2ccccc2)ccc1O -5.66

Follow-up entry: CCC1CCC(N2CCN(c3ccc([N+](=O)[O-])cc3)CC2)CC1 (centres unmarked) -74.5

Follow-up entry: COc1ccc(CCN2CC(C(=O)NCc3ccc(F)cc3)CC2=O)cc1OC (centres unmarked) 6.95

Follow-up entry: Nc1nc(SCCC(F)=C(F)F)n[nH]1 4.82

Follow-up entry: COc1ccc2nc(C)cc(N3CCC(C(N)=O)CC3)c2c1 -2.62

Follow-up entry: Cc1ccc(Cl)c2sc(N3CCN(C(=O)c4ccco4)CC3)nc12 -0.903

Follow-up entry: O=C(NCc1ccco1)c1cc2n(n1)C(C(F)(F)F)CC(c1ccc(F)cc1)N2 (centres unmarked) -4.18

Follow-up entry: Cc1ccc2nc(N3CCN(C(=O)c4ccco4)CC3)sc2c1 -7.42

Follow-up entry: O=[N+]([O-])c1ccc(N2CCN(c3ccc(F)cc3)CC2)cc1 5.71

Follow-up entry: CCN1CCC(N2CCN(c3ccc(Cl)cc3)CC2)CC1 10.7

Follow-up entry: CC(=O)NNS(=O)(=O)c1ccc(-c2cc(C(F)(F)F)n(C)n2)s1 2.67

Follow-up entry: COc1ccc(N2CCN(CC(O)COC(C)(C)C)CC2)cc1.O=C(O)C(=O)O (centres unmarked) 12.5

Follow-up entry: COc1ccccc1N1CCN(C(=O)c2cn(C)c3ccc(S(=O)(=O)N4CCOCC4)cc3c2=O)CC1 13.1

Follow-up entry: COc1ccc(C2C(C(=O)N3CCN(c4ccccn4)CC3)CCC(=O)N2c2ccc(OC)cc2)cc1 (centres unmarked) -0.548

Follow-up entry: CCOc1ccc2nc(N3CCC(C(=O)N4CCN(C(=O)c5ccco5)CC4)CC3)sc2c1 -89.3

Follow-up entry: CCCN1CCC(N2CCN(c3ccc([N+](=O)[O-])cc3)CC2)CC1 -62.7

Follow-up entry: N=c1c(C(=O)NC2CCCC2)cc2c(=O)n3ccccc3nc2n1C1CCCCC1 -86.9

Follow-up entry: COc1ccc(CC[NH+](C)CCCN2CC(c3ccccc3)CC2=O)cc1OC.O=C([O-])C(=O)[O-] (centres unmarked) -61.9

Follow-up entry: COc1ccc(C(C)=O)cc1COC(=O)c1cnc(C)cn1 17.6

Follow-up entry: O=[N+]([O-])c1ccc(N2CCN(c3ccccc3)CC2)cc1 9.45

Follow-up entry: CCOc1ccc2nc(N3CCC(C(=O)N4CCC5(CC4)OCCO5)CC3)sc2c1 6.77

Follow-up entry: COc1ccc(S(=O)(=O)Nc2ccc(Cc3ccncc3)cc2)cc1C 0.33

Follow-up entry: CC(=O)Nc1ccc2[nH]c3ccccc3c2c1 3.08

Follow-up entry: CS(=O)(=O)N1N=C(c2ccco2)CC1c1ccccc1Cl (centres unmarked) 9.15

Follow-up entry: COc1ccc(NC(=O)CNC(c2ccccc2)c2ccccc2)cc1.O=C(O)C(=O)O 14.5

Follow-up entry: COc1ccc(C2SCC(=O)N2CCc2ccc(OC)c(OC)c2)cc1 (centres unmarked) -1.68

Follow-up entry: COc1ccc(CCN2CC(C(=O)O)CC2=O)cc1OC (centres unmarked) 2.95

Follow-up entry: C=CCn1c(O)c(C(C)=NCCN2CCCCC2)c(=O)[nH]c1=O 8.8

Follow-up entry: COc1ccc(C2C(C(=O)N3CCN(c4ccccn4)CC3)CC(=O)N2c2ccc(OC)cc2)cc1 (centres unmarked) -50.6

Follow-up entry: COCCOc1ccc(C(F)(F)F)cc1NC(=O)c1ccc(C(F)(F)F)cc1 4.7

Follow-up entry: COc1ccc(C2CC(=O)N(CCC[NH+](C)CCc3ccc(OC)c(OC)c3)C2)cc1.O=C([O-])C(=O)[O-] (centres unmarked) -72.9

Follow-up entry: COc1ccc(NC(=O)CN2CC(c3ccccc3)CC2=O)cc1OC (centres unmarked) 12.3

Follow-up entry: COc1ccc(CNC(=S)Nc2ccc(-c3ccccc3)cc2)cc1 6.99

Follow-up entry: O/N=C(\COc1ccccc1O)c1ccccc1 -0.796

Follow-up entry: COc1ccc(N2CCN(c3cc(C)nc4ccc(OC)cc34)CC2)cc1 -31

Follow-up entry: O=C(c1ccco1)N1CCN(c2nc3ccsc3c(=O)s2)CC1 -74.5
